Value source: patent US11566007B2

assayed target: NRAS Q61R (Homo sapiens (Human), UniProt P01111+P62937, Q61R)
Sequence (P01111 whole entry Q61R): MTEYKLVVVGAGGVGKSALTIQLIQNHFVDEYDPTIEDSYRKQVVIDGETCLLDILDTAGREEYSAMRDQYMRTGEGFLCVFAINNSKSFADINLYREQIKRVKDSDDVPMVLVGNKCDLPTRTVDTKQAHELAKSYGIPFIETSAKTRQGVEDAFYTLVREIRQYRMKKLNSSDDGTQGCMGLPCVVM
Sequence (P62937 whole entry): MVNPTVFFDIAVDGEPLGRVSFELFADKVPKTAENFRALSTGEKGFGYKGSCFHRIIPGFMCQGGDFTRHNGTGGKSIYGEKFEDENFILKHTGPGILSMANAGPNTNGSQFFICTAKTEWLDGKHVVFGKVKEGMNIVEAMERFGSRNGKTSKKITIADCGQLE
assay overview: Ras-Raf (BRAF RBD) disruption / FRET / MOA assay, NRAS Q61R
Assay type: biochemical
condition: NRAS Q61R; Ras-Raf disruption/FRET/MOA assay; read-out: IC50* NRAS Q61R FRET data
pIC50: −log10 of the molar value.

{"compound": "CCn1c(-c2cccnc2[C@H](C)OC)c2c3cc(ccc31)-c1cc(CF)cc(c1)C[C@H](NC(=O)[C@H](C(C)C)N1CC[C@]3(CCN(C(=O)C#CC(C)(C)N(C)C)C3)C1=O)C(=O)N1CCC[C@H](N1)C(=O)OCC(C)(C)C2 (atropisomer, axis not shown) [Example A673]", "pIC50": "5.00 to 6.00"}
{"compound": "C=CC(=O)N1CC[C@H](C(=O)N(C)[C@H](C(=O)N[C@H]2Cc3cc(O)cc(c3)-c3ccc4c(c3)c(c(-c3ncn(C)c3[C@H](C)OC)n4CC)CC(C)(C)COC(=O)[C@@H]3CCCN(N3)C2=O)C(C)C)C1 [Example A301]", "pIC50": "< 5.00"}
{"compound": "CCn1c(-c2cccnc2[C@H](C)OC)c2c3cc(ccc31)N1CCO[C@@H](C[C@H](NC(=O)[C@H](C(C)C)N(C)C(=O)C3(F)CCN(C(=O)/C=C/CN(C)C)CC3)C(=O)N3CCC[C@H](N3)C(=O)OCC(C)(C)C2)C1 (atropisomer, axis not shown) [Example A645]", "pIC50": "< 5.00"}
{"compound": "CO[C@@H](C)c1ncccc1-c1c2c3cc(ccc3n1CC(F)(F)F)-c1cc(cc(C(F)F)c1)C[C@H](NC(=O)[C@@H](COC1CN(C(=O)C#CC(C)(C)N(C)C)C1)C(C)C)C(=O)N1CCC[C@H](N1)C(=O)OCC(C)(C)C2 (atropisomer, axis not shown) [Example A374]", "pIC50": "< 5.00"}
